Assay: AUC in dog at 2 mg/kg, po after 48 hrs
Format: ADME, organism-based, Canis lupus familiaris
Design: time < 48 hr, dose 2 mg/kg, route oral
Settings: plasma

STRUCTURE_NOTATION | AUC at 48 h / µM·h
CC[C@@H](Nc1c(Nc2cccc(C(=O)N(C)C)c2O)c(=O)c1=O)c1cc(C(C)C)co1 | 7.1

* * *

Test: AUC in mouse at 25 mg/kg, po after 7 hrs
Format: ADME, organism-based
Parameters: time < 7 hr, dose 25 mg/kg, route oral
Settings: plasma

STRUCTURE_NOTATION | RESULT_UNITS | AUC at 7 h
CC[C@@H](Nc1c(Nc2cccc(C(=O)N(C)C)c2O)c(=O)c1=O)c1cc(C(C)C)co1 | µM·h | 4.6
